As shown below, each of these molecules has a reported Emax value.
# target: human GR (Homo sapiens)
# Sequence (P04150 1-777): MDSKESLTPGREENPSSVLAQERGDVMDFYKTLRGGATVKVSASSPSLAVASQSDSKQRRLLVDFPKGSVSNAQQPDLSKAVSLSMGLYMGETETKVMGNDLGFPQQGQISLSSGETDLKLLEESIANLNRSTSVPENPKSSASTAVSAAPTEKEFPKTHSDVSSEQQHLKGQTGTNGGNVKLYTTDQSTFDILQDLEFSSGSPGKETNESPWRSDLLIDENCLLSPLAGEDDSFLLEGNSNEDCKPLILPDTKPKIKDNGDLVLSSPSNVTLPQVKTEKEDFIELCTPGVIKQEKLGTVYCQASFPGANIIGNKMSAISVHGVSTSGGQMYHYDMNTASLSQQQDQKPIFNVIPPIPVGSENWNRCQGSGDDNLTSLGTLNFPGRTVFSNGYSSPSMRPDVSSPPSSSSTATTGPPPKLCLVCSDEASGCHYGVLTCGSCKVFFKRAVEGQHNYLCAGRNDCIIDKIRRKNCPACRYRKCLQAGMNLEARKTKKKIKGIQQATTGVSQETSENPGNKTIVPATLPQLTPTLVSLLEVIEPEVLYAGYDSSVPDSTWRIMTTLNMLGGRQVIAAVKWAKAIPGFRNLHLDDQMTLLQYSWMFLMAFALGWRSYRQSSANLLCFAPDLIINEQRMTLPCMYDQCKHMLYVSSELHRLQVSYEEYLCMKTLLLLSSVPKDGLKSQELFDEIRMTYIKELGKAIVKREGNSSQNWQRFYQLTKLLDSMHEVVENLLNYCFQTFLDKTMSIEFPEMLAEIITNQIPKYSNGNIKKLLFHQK
# protocol: Trans-Activation Modulation of Glucocorticoid Receptor (GRAMMER), MMTV-LUC reporter, agonist mode
# Format: cell-based
# Parameters: endogenous in cells
# stated conditions: A549, A549 cells; maximum activity; read-out: Transactivation A549 Cells GRAMMER Emax
Note: unit % is implicit; provide only the numeric part.

Cc1ccccc1S(=O)(=O)N(CCO)C[C@H]1CCC2=Cc3c(cnn3-c3ccc(F)cc3)C[C@@]21C | 17.9

Emax recorded for this molecule, `C[C@]12Cc3cnn(-c4ccccc4)c3C=C1CC[C@@H]2CN(CCc1ccccc1F)S(=O)(=O)CC(F)(F)F` , is 73.6

Query `C[C@]12Cc3cnn(-c4ccc(F)cc4)c3C=C1CC[C@@H]2CN(CCc1ccccc1F)S(=O)(=O)Cc1cccnc1` yields Emax of 99.2

Emax reported for this molecule `C[C@]12Cc3cnn(-c4ccc(F)cc4)c3C=C1CC[C@@H]2CN(CC#N)S(=O)(=O)c1ccc(F)cc1F` : 83.3

###

# target: human GR (Homo sapiens, UniProt P04150)
# Sequence (P04150 1-777): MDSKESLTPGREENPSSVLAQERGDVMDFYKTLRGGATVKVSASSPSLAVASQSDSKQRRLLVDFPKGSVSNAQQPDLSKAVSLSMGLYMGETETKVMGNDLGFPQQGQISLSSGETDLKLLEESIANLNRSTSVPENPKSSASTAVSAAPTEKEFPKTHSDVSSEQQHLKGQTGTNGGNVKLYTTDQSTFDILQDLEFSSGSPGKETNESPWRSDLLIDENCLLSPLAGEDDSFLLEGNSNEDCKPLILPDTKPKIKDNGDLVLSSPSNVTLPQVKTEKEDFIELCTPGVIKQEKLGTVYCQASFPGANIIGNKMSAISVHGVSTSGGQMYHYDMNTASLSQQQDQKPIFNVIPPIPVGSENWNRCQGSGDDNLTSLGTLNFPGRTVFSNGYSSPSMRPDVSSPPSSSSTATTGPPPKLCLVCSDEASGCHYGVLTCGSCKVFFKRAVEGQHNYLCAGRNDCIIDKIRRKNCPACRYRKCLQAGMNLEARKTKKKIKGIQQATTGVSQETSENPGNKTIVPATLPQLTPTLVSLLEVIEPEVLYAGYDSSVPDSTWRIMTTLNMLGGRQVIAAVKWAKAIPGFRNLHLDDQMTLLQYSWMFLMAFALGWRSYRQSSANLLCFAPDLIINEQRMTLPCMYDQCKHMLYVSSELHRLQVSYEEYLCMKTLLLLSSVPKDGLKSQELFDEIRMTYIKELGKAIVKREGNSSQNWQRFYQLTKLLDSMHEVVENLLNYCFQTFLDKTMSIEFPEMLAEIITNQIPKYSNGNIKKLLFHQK
# protocol: Trans-Activation Modulation of Glucocorticoid Receptor (GRAMMER), MMTV-LUC reporter, agonist mode
# Type: cell-based
# Design: endogenous in cells
# stated conditions: A549, A549 cells; maximum activity; read-out: Transactivation A549 Cells GRAMMER Emax
# label = bin(measured Emax), where bins are lower (below 30%), middle (30% to below 60%), upper (60% or more)

Completed entries (count: 5):
COC(=O)c1ccccc1CS(=O)(=O)N(C[C@H]1CCC2=Cc3c(cnn3-c3ccc(F)cc3)C[C@@]21C)C[C@H](C)O | middle
COC(=O)c1ccccc1CS(=O)(=O)N(C[C@H]1CCC2=Cc3c(cnn3-c3ccc(F)cc3)C[C@@]21C)C[C@@H](C)O | middle
C[C@]12Cc3cnn(-c4ccc(F)cc4)c3C=C1CC[C@@H]2CN(CCc1ccccn1)S(=O)(=O)Cc1ccncc1 | middle
CN(C[C@H]1CCC2=Cc3c(cnn3-c3ccc(F)cc3)C[C@@]21C)S(=O)(=O)CC(F)(F)F | upper
C[C@]12Cc3cnn(-c4ccc(F)cc4)c3C=C1CC[C@@H]2CN(CC#N)S(=O)(=O)c1ccc(F)c(Cl)c1 | upper

// switching to the query compound
[ask] Category of `C[C@]12Cc3cnn(-c4ccc(F)cc4)c3C=C1CC[C@@H]2CN(CCO)S(=O)(=O)c1ccc(C#N)cc1` , please.
[reply] lower
